From: patent US20130217664A1

molecular target: human JAK2 (Homo sapiens); construct: catalytic domain (amino acids 808-1132; catalog number PV4210); GST; test: JAK2 inhibition assay (polyGT substrate / Ulight-JAK1 peptide); conditions: recombinant human JAK2 catalytic domain; polyGT or Ulight-JAK1 peptide assay
pIC50: −log10 of the molar value.
MEASURED METRIC: pIC50

{"MOLECULE SMILES": "CCc1ccc(C(=O)NC)cc1N(C)c1cc2c(cn1)ncn2C", "pIC50": "< 6.00"}

## Task Value lookup for pIC50; key = CCc1cc(C(=O)NCCC#N)ccc1N(C)c1cc2c(cn1)ncn2C
## Result 6.00 to 6.30

## Task Value lookup for pIC50; key = Cc1ccc(OCC(=O)N(C)C)cc1N(C)c1cc2c(cn1)ncn2C
## Result < 6.00

## Task Value lookup for pIC50; key = CN(c1cc2c(cn1)ncn2C)c1ccc(C#N)cc1OC(F)F
## Result < 6.00

## Task Value lookup for pIC50; key = CCc1cc(C2CN(C(=O)C(F)F)C2)ccc1N(C)c1cc2c(cn1)ncn2C
## Result 7.00 to 11.00

* * *

biological target: human JAK3 (Homo sapiens); construct: catalytic domain (amino acids 781-1124; catalog number PV3855); assay: JAK3 inhibition assay; details: recombinant human JAK3 catalytic domain; polyGT substrate
Sequence (P52333 781-1124): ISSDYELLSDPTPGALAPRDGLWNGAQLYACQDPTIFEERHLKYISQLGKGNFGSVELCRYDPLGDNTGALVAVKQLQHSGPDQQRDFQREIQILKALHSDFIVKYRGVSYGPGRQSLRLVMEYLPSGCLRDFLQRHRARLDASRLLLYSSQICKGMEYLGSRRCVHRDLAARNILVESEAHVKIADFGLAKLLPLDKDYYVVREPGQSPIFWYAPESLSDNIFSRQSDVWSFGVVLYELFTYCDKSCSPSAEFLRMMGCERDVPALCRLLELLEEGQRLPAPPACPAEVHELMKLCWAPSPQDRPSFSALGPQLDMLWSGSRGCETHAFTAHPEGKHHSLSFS
MEASURED METRIC: IC50

Here is how some molecules turned out for IC50.
{"MOLECULE": "CCc1cc(O)ccc1N(C)c1cc2c(cn1)ncn2C [Compound 107]", "RESULT": "101 to 500 nM"}
{"MOLECULE": "CCc1cc(CNS(=O)(=O)C(F)F)c(F)cc1N(C)c1cc2c(cn1)ncn2C [Compound 327]", "RESULT": "0.01 to 100 nM"}
{"MOLECULE": "CCc1cc(N2CC(C(=O)NC)C2)ncc1N(C)c1cc2c(cn1)ncn2C [Compound 400]", "RESULT": "> 1000 nM"}
{"MOLECULE": "CCc1cc(C2=CCOCC2)ccc1N(C)c1cc2c(cn1)ncn2C [Compound 153]", "RESULT": "101 to 500 nM"}

Now let's try a different one.
## Task Field: IC50 (human JAK3 (Homo sapiens)). Entry: CCC(=O)NC1CN(C(C#N)c2ccc(N(C)c3cc4c(cn3)ncn4C)c(CC)c2)C1 (centres unmarked) [Compound 454]
## Result 101 to 500 nM

* * *

molecular target: human JAK2 (Homo sapiens, UniProt O60674); construct: catalytic domain (amino acids 808-1132; catalog number PV4210); GST; assay: JAK2 inhibition assay (polyGT substrate / Ulight-JAK1 peptide); settings: recombinant human JAK2 catalytic domain; polyGT or Ulight-JAK1 peptide assay
Sequence (O60674 808-1132): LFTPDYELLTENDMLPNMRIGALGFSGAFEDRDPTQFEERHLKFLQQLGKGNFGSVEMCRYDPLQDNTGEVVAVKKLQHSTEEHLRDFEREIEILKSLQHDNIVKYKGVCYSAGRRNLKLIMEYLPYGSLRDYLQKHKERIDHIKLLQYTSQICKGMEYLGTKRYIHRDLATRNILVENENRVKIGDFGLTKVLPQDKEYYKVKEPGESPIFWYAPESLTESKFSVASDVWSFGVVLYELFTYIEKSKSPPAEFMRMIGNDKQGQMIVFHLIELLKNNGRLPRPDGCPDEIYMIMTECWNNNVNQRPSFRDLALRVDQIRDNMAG
pIC50: −log10 of the molar value.
Below: a set of entries, each annotated with reported pIC50.

Here is how some compounds turned out for pIC50.
{"MOLECULE SMILES": "CCc1cc(C2CN(CCC(F)(F)F)C2)ncc1N(C)c1cc2c(cn1)ncn2C", "TARGET DESC": "human JAK2 (Homo sapiens, UniProt O60674)", "pIC50": "< 6.00"}
{"MOLECULE SMILES": "CCc1cc(C(=O)NCc2ccccc2)ccc1N(C)c1cc2c(cn1)ncn2C", "TARGET DESC": "human JAK2 (Homo sapiens, UniProt O60674)", "pIC50": "6.00 to 6.30"}
{"MOLECULE SMILES": "CCc1cc(CO)ccc1N(C)c1cc2c(cn1)ncn2C", "TARGET DESC": "human JAK2 (Homo sapiens, UniProt O60674)", "pIC50": "6.30 to 7.00"}
{"MOLECULE SMILES": "Cc1c(OCCCC#N)cccc1N(C)c1cc2c(cn1)ncn2C", "TARGET DESC": "human JAK2 (Homo sapiens, UniProt O60674)", "pIC50": "< 6.00"}
{"MOLECULE SMILES": "CCc1ccccc1N(Cc1ccccn1)c1cc2c(cn1)ncn2C", "TARGET DESC": "human JAK2 (Homo sapiens, UniProt O60674)", "pIC50": "< 6.00"}

## Task Value lookup for pIC50; key = CCN(c1ccc2c(ccn2C)c1)c1cc2c(cn1)ncn2C
## Result 6.30 to 7.00

## Task Value lookup for pIC50; key = CCc1ccc(C(=O)NCc2ccccn2)cc1N(C)c1cc2c(cn1)ncn2C
## Result < 6.00

## Task Value lookup for pIC50; key = CCNC(=O)c1ccc(N(C)c2cc3c(cn2)ncn3C)c(CC)c1
## Result < 6.00

## Task Value lookup for pIC50; key = Cc1ccc(OCCN2CCCC2)cc1N(C)c1cc2c(cn1)ncn2C
## Result < 6.00

* * *

tested on: pSTAT1(2)-luciferase reporter in HeLa cells triggered with human OSM; test: JAK-STAT signalling assay; assay type: cell-based; settings: Homo sapiens, HeLa, HeLa cells, pSTAT1(2)-luciferase reporter, human OSM 33 ng/mL; read-out: JAK-STAT IC50
pIC50: −log10 of the molar value.
MEASURED METRIC: pIC50

Here is how some compounds turned out for pIC50.
{"COMPOUND": "CCc1cc(CNS(=O)(=O)CC)ccc1N(C)c1cc2c(cn1)ncn2C [Compound 253]", "pIC50": "6.30 to 9.00"}
{"COMPOUND": "CN(c1ccc(CC#N)cc1)c1cc2c(cn1)ncn2C [Compound 26]", "pIC50": "< 6.00"}
{"COMPOUND": "CCc1cc(CNC(=O)OC)ccc1N(C)c1cc2c(cn1)ncn2C [Compound 191]", "pIC50": "6.00 to 6.30"}
{"COMPOUND": "CCc1cc(-c2cnn(C)c2)ccc1N(C)c1cc2c(cn1)ncn2C [Compound 93]", "pIC50": "6.30 to 9.00"}

Now let's try a different one.
## Task Field: pIC50 (pSTAT1(2)-luciferase reporter in HeLa cells triggered with human OSM). Entry: CCc1cc(-c2nnc(C)o2)ccc1N(C)c1cc2c(cn1)ncn2C [Compound 177]
## Result 6.00 to 6.30

* * *

Below: a set of entries, each annotated with reported pIC50.
biological target: human JAK1 (Homo sapiens, UniProt P23458); construct: catalytic domain, amino acids 866-1154; catalog number PV4774; purchased Invitrogen PV4774; assay: JAK1 inhibition assay (polyGT substrate / Ulight-JAK1 peptide); assay type: biochemical; conditions: recombinant human JAK1 catalytic domain; polyGT or Ulight-JAK1 peptide assay
Sequence (P23458 866-1154): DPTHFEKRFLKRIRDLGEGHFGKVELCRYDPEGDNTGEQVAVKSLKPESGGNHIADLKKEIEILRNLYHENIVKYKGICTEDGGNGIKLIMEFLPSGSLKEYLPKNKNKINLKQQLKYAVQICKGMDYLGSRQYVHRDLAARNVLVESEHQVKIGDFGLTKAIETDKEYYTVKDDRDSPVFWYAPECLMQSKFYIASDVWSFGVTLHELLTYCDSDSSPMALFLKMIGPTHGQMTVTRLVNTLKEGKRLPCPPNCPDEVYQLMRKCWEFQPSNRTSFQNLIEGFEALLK
pIC50: −log10 of the molar value.

## Task Value lookup for pIC50; key = COc1cc(-c2cnn(C)c2)ncc1N(C)c1cc2c(cn1)ncn2C
## Result 6.00 to 6.30

## Task Value lookup for pIC50; key = CCc1cc(-c2cnn(Cc3ccc(OC)cc3)c2)ccc1N(C)c1cc2c(cn1)ncn2C
## Result 7.00 to 11.00

## Task Value lookup for pIC50; key = CN(c1cc2c(cn1)ncn2C)c1ccc(C2CN(S(=O)(=O)N(C)C)C2)cc1OC(F)F
## Result 7.00 to 11.00

## Task Value lookup for pIC50; key = CCc1ccccc1N(Cc1ccccn1)c1cc2c(cn1)ncn2C
## Result < 6.00

## Task Value lookup for pIC50; key = CCc1cc(C2=CCN(C(=O)C3(C#N)CC3)CC2)ccc1N(C)c1cc2c(cn1)ncn2C
## Result 7.00 to 11.00

## Task Value lookup for pIC50; key = CCOc1ccc(N(C)c2cc3c(cn2)ncn3C)c(CC)c1
## Result 7.00 to 11.00

## Task Value lookup for pIC50; key = CN(c1cc2c(cn1)ncn2C)c1ccc(CN(CC2CC2)S(C)(=O)=O)cc1F
## Result 6.30 to 7.00

## Task Value lookup for pIC50; key = CCc1cc(C(C#N)N2CC(NS(C)(=O)=O)C2)ccc1N(C)c1cc2c(cn1)ncn2C (centres unmarked)
## Result 7.00 to 11.00

* * *

molecular target: human TYK2 (Homo sapiens); construct: catalytic domain (amino acids 871-1187; catalog number 08-147); assay: TYK2 inhibition assay; settings: recombinant human TYK2 catalytic domain, polyGT substrate
Sequence (P29597 871-1187): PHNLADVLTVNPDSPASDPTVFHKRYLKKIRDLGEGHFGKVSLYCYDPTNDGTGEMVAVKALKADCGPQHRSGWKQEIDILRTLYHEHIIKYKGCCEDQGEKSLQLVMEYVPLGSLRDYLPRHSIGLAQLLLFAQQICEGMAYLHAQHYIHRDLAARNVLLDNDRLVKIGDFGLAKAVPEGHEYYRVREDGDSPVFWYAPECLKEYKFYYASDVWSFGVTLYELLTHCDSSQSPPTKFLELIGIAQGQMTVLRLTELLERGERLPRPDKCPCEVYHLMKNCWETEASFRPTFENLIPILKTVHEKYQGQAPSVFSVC
MEASURED METRIC: IC50

Here is how some compounds turned out for IC50.
{"COMPOUND": "CCC(=O)NC1CN(C(C#N)c2ccc(N(C)c3cc4c(cn3)ncn4C)c(CC)c2)C1 (stereo not drawn) [Compound 454]", "IC50": "0.01 to 100 nM"}
{"COMPOUND": "CCc1cc(CNC2CCNC2)ccc1N(C)c1cc2c(cn1)ncn2C (stereo not drawn) [Compound 293]", "IC50": "> 1000 nM"}
{"COMPOUND": "CCc1cn(C2(CC#N)CNC2)nc1N(C)c1cc2c(cn1)ncn2C [Compound 309]", "IC50": "> 1000 nM"}

## Task Value lookup for IC50; key = CCc1cc(C(C#N)N2CC(O)C2)ccc1N(C)c1cc2c(cn1)ncn2C (stereo not drawn) [Compound 450]
## Result 0.01 to 100 nM

## Task Value lookup for IC50; key = CCc1cc(-c2cncs2)ccc1N(C)c1cc2c(cn1)ncn2C [Compound 151]
## Result 0.01 to 100 nM

## Task Value lookup for IC50; key = CCc1cc(-c2cnn(CC(=O)C(C)(C)C)c2)ccc1N(C)c1cc2c(cn1)ncn2C [Compound 221]
## Result 101 to 500 nM

## Task Value lookup for IC50; key = CCc1cc(C2CN(C(=O)OC)C2)ncc1N(C)c1cc2c(cn1)ncn2C [Compound 339]
## Result > 1000 nM

## Task Value lookup for IC50; key = CN(c1cc2c(cn1)ncn2C)c1ccc(C2CN(S(=O)(=O)N3CCOCC3)C2)cc1OC(F)F [Compound 371]
## Result > 1000 nM

## Task Value lookup for IC50; key = Cc1c(OCC#N)cccc1N(C)c1cc2c(cn1)ncn2C [Compound 64]
## Result 101 to 500 nM
